The origin of these recorded values is paper PMC12486152.

# assay_system: N-acetylglucosaminyltransferase V (MGATV) (Homo sapiens, UniProt Q09328)
# Sequence (Q09328 214-741): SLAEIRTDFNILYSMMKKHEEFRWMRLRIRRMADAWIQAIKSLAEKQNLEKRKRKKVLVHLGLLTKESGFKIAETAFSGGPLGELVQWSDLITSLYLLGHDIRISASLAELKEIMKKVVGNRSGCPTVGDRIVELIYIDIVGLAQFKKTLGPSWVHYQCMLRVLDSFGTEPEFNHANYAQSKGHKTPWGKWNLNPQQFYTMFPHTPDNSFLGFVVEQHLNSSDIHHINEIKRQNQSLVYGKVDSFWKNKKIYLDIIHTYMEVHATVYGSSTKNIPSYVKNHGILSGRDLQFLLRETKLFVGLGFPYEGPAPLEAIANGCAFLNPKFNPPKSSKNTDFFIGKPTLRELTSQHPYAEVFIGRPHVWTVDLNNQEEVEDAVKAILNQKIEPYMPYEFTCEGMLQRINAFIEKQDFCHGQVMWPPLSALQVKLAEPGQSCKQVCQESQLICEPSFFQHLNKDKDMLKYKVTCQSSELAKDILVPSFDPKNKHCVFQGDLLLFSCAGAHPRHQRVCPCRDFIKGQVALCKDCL

# compound, assay_system, IC50
measured = [
    ("CC(=O)N1CCCC(C(=O)O)(c2ccc(C)cc2)C1 (racemic) [8p]", "N-acetylglucosaminyltransferase V (MGATV) (Homo sapiens, UniProt Q09328)", "~4.4 mM"),
]
